System: Escherichia coli K-12 BW25113
Method description: relative growth (OD600 normalised to plate interquartile mean) (fraction); higher = less growth inhibition, active = 0.2 or less
Assay setup: 50 µM; LB; incubation time: overnight (16-24 h)
Screen size: about 39,000 compounds; about 220 (0.56%) showed activity. Shown is part of a subset that was picked to be rich in actives.
Your response should consist of one outcome taken from 1.0 = active, 0.0 = inactive

[ask] Recorded test call requested for `C[C@@H]1CN([C@H](C)CO)C(=O)c2cc(NS(=O)(=O)c3ccc(F)cc3)ccc2O[C@@H](C)CCCCO[C@@H]1CN(C)C(=O)C1CCCCC1`
[reply] 0.0

[ask] Recorded test call requested for `Cc1noc(C)c1NC(=O)Nc1ccc2c(c1)C(=O)N([C@@H](C)CO)C[C@@H](C)[C@@H](CN(C)S(=O)(=O)c1ccccc1)OCCCC[C@H](C)O2`
[reply] 0.0

[ask] Recorded test call requested for `c1n[nH]nc1SSc1cn[nH]n1`
[reply] 0.0

[ask] Recorded test call requested for `Cc1ccc(S(=O)(=O)Nc2ccc3c(c2)C(=O)N([C@H](C)CO)C[C@H](C)[C@@H](CN(C)C(=O)C2CCCCC2)OCCCC[C@H](C)O3)cc1`
[reply] 0.0

[ask] Recorded test call requested for `Cc1nc(CN)c(C)o1`
[reply] 0.0

[ask] Recorded test call requested for `C[C@@H]1CN([C@H](C)CO)C(=O)Cc2cc(NS(=O)(=O)c3cccs3)ccc2O[C@@H]1CN(C)Cc1ccc(Cl)c(Cl)c1`
[reply] 0.0

[ask] Recorded test call requested for `COc1ccc(S(=O)(=O)N(C)C[C@H]2Oc3c(NC(=O)C4CC4)cccc3C(=O)N([C@H](C)CO)C[C@@H]2C)cc1`
[reply] 0.0

[ask] Recorded test call requested for `COCCCNC(=O)[C@@H]1c2ccccc2C(=O)N(Cc2cc(C(F)(F)F)cc(C(F)(F)F)c2)[C@H]1c1ccc(CO)cc1`
[reply] 0.0

[ask] Recorded test call requested for `O=C(NCC(F)(F)F)[C@@H]1[C@@H](CO)[C@@H]2Cn3c(cccc3=O)[C@@H]2N1C(=O)C1CCC1`
[reply] 0.0

[ask] Recorded test call requested for `[N-]=[N+]=Nc1ccccc1C[C@@]1(C(=O)NC[C@@H](O)CO)N=C(c2ccc(OCCCO)cc2)O[C@@H]1c1ccccc1`
[reply] 0.0

[ask] Recorded test call requested for `C[C@H]1COc2c(C3(N)CC3)c(F)cc3c(=O)c(C(=O)O)cn1c23`
[reply] 1.0

[ask] Recorded test call requested for `Cc1noc(C)c1NC(=O)N(C)C[C@@H]1Oc2c(NC(=O)c3ccncc3)cccc2C(=O)N([C@H](C)CO)C[C@@H]1C`
[reply] 0.0

[ask] Recorded test call requested for `Cc1noc(C)c1S(=O)(=O)Nc1ccc2c(c1)CC(=O)N([C@H](C)CO)C[C@H](C)[C@H](CN(C)S(=O)(=O)c1c(C)noc1C)O2`
[reply] 0.0

[ask] Recorded test call requested for `C[C@H](CO)N1C[C@H](C)[C@H](CN(C)C(=O)Nc2ccc(N3CCN(C)CC3)cc2)OCc2cnnn2CCCC1=O`
[reply] 0.0

[ask] Recorded test call requested for `CC(=O)On1cc(F)c(=O)[nH]c1=O`
[reply] 1.0

[ask] Recorded test call requested for `C[C@H]1CN([C@@H](C)CO)C(=O)c2cccc(NC(=O)Nc3ccccc3)c2O[C@@H]1CN(C)S(C)(=O)=O`
[reply] 0.0

* * *

System: Escherichia coli K-12 BW25113
Method description: relative growth (OD600 normalised to plate interquartile mean) (fraction); higher = less growth inhibition, active = 0.2 or less
Assay setup: 50 µM; LB; incubation time: overnight (16-24 h)
The campaign covered roughly 39,000 compounds. About 220 (0.56%) showed activity. The sample as a whole holds a higher share of actives than the screen did.
Metric: relative growth
Returns: the value as a bare number; no unit string appended.

[ask] Fill in the blank: the reported relative growth of `COc1ccc2c(c1OCc1ccccc1)C[C@@H](C(=O)O)N(C(=O)C(c1ccccc1)c1ccccc1)C2` is ____.
[reply] 1.02

[ask] Fill in the blank: the reported relative growth of `C[C@H](CO)N1C[C@H](C)[C@@H](CN(C)Cc2ccc(C(=O)O)cc2)OCCCC[C@H](C)Oc2ccc(NC(=O)Nc3ccc4c(c3)OCO4)cc2C1=O` is ____.
[reply] 0.95

[ask] Fill in the blank: the reported relative growth of `C/C=C/c1ccc2c(c1)O[C@@H](CN(C)C(=O)c1ccc3c(c1)OCO3)[C@@H](C)CN([C@H](C)CO)S2(=O)=O` is ____.
[reply] 1.01

[ask] Fill in the blank: the reported relative growth of C[N+]1(C)C2CCC1CC(OC(=O)C(O)c1ccccc1)C2.[Br-] (stereo not drawn) is ____.
[reply] 0.924

[ask] Fill in the blank: the reported relative growth of `CNC[C@H]1Oc2cc(C#CCN(C)C)ccc2S(=O)(=O)N([C@H](C)CO)C[C@@H]1C` is ____.
[reply] 1.02

[ask] Fill in the blank: the reported relative growth of `Cc1ccc(S(=O)(=O)N(C)C[C@@H]2Oc3ccc(NS(=O)(=O)c4cccs4)cc3CC(=O)N([C@H](C)CO)C[C@H]2C)cc1` is ____.
[reply] 1

[ask] Fill in the blank: the reported relative growth of `C[C@@H]1CN([C@H](C)CO)C(=O)c2cccc(NS(=O)(=O)c3ccc(Cl)cc3)c2O[C@H]1CN(C)C(=O)Nc1cccc2ccccc12` is ____.
[reply] 1.02

[ask] Fill in the blank: the reported relative growth of `CN(C)C(=O)C[C@@H]1CC[C@@H]2[C@H](COC[C@H](O)CN2S(=O)(=O)c2ccccc2)O1` is ____.
[reply] 1.02

* * *

Tested on: Escherichia coli K-12 BW25113
Method description: relative growth (OD600 normalised to plate interquartile mean) (fraction); higher = less growth inhibition, active = 0.2 or less
Assay setup: 50 µM; LB; incubation time: overnight (16-24 h)
In all, about 39,000 compounds went through this assay and about 220 (0.56%) showed activity. This is one part of a sample in which actives are shown more often than they occur.
Metric: relative growth
Returns: the value as a bare number; no unit string appended.

[ask] Fill in the blank: the reported relative growth of `CN[C@@H]1[C@H](O[C@H]2[C@H](O[C@@H]3[C@@H](O)[C@H](O)[C@@H](NC(=N)N)[C@H](O)[C@H]3NC(=N)N)O[C@@H](C)[C@]2(O)CO)O[C@@H](CO)[C@H](O)[C@H]1O.CN[C@@H]1[C@H](O[C@H]2[C@H](O[C@@H]3[C@@H](O)[C@H](O)[C@@H](NC(=N)N)[C@H](O)[C@H]3NC(=N)N)O[C@@H](C)[C@]2(O)CO)O[C@@H](CO)[C@H](O)[C@H]1O` is ____.
[reply] 0.11

[ask] Fill in the blank: the reported relative growth of `CN(C)c1cc(NC(=O)CNC(C)(C)C)c(O)c2c1C[C@H]1C[C@H]3[C@H](N(C)C)C(=O)C(C(N)=O)=C(O)[C@@]3(O)C(=O)[C@H]1C2=O` is ____.
[reply] 1

[ask] Fill in the blank: the reported relative growth of `CN(C)c1ccc(O)c2c1C[C@H]1C[C@H]3[C@H](N(C)C)C(=O)[C@@H](C(N)=O)C(=O)[C@@]3(O)C(=O)[C@H]1C2=O` is ____.
[reply] 0.0587

[ask] Fill in the blank: the reported relative growth of `COCCNC(=O)C[C@H]1C[C@H]2c3cc(NS(C)(=O)=O)ccc3O[C@H]2[C@H](CO)O1` is ____.
[reply] 1.01

* * *

For each of the molecules below, state its relative growth.
Tested on: Escherichia coli K-12 BW25113;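 further: Wild-type cells incubated without shaking, value is the mean of two biological replicates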
Method description: relative growth (OD600 normalised to plate interquartile mean) (fraction); higher = less growth inhibition, active = 0.2 or less
Assay setup: 50 µM; LB; incubation time: overnight (16-24 h)
The campaign covered roughly 39,000 compounds. About 220 (0.56%) showed activity. The sample as a whole holds a higher share of actives than the screen did.
Returns: the value as a bare number; no unit string appended.

[ask] Fill in the blank: the reported relative growth of `NC1CCN(Cc2ccccc2)CC1` is ____.
[reply] 1.09

[ask] Fill in the blank: the reported relative growth of `COc1ccc(C(=O)Nc2ccc3c(c2)C(=O)N(C)[C@@H]2CC[C@@H](CC(=O)NCC4CC4)O[C@H]2CO3)cc1` is ____.
[reply] 0.96

[ask] Fill in the blank: the reported relative growth of `C(=C\c1ccccc1)/CSc1ncnc2c1oc1ccccc12` is ____.
[reply] 1.02

[ask] Fill in the blank: the reported relative growth of `COC(=O)[C@@H](NC(=O)c1cccc(NC=O)c1O)[C@@H](C)O` is ____.
[reply] 1.04

[ask] Fill in the blank: the reported relative growth of `CC(C)CCCC(=O)N[C@@H](CCNCS(=O)(=O)O)C(=O)N[C@H](C(=O)N[C@@H](CCNCS(=O)(=O)O)C(=O)N[C@H]1CCNC(=O)[C@H]([C@@H](C)O)NC(=O)[C@H](CCNCS(=O)(=O)O)NC(=O)[C@H](CCNCS(=O)(=O)O)NC(=O)[C@H](CC(C)C)NC(=O)[C@H](CC(C)C)NC(=O)[C@H](CCNCS(=O)(=O)O)NC1=O)[C@@H](C)O` is ____.
[reply] 0.0299

[ask] Fill in the blank: the reported relative growth of `C[C@H]1CCCCO[C@H](CN(C)Cc2ccccc2)[C@@H](C)CN([C@@H](C)CO)C(=O)c2cc(NC(=O)Nc3cccc4ccccc34)ccc2O1` is ____.
[reply] 0.996

[ask] Fill in the blank: the reported relative growth of `CN1CCN(C(=O)C[C@@H]2CC[C@@H]3[C@H](COC[C@H](O)CN3C(=O)Nc3ccc4c(c3)OCO4)O2)CC1` is ____.
[reply] 0.974

[ask] Fill in the blank: the reported relative growth of `CN(C)CCN1CCc2ncc(Cn3cncn3)n2CC1` is ____.
[reply] 0.99

[ask] Fill in the blank: the reported relative growth of `C[C@H]1CCCCO[C@H](CN(C)C(=O)Cc2ccccc2)[C@@H](C)CN([C@@H](C)CO)C(=O)c2cc(NC(=O)c3ccccc3)ccc2O1` is ____.
[reply] 1.03

[ask] Fill in the blank: the reported relative growth of `O=C(C[C@@H]1C[C@@H]2c3cc(NS(=O)(=O)c4ccc(F)cc4)ccc3O[C@@H]2[C@H](CO)O1)NC1CCCC1` is ____.
[reply] 0.992

[ask] Fill in the blank: the reported relative growth of `Nc1cc[nH]c(=O)n1` is ____.
[reply] 0.997

[ask] Fill in the blank: the reported relative growth of `Cc1noc(C)c1NC(=O)Nc1cccc2c1O[C@@H](CN(C)Cc1ccc(-c3ccccc3)cc1)[C@H](C)CN([C@@H](C)CO)C2=O` is ____.
[reply] 1.01

[ask] Fill in the blank: the reported relative growth of `C[C@H](CO)N1C[C@H](C)[C@H](CN(C)S(C)(=O)=O)Oc2c(NC(=O)c3ccc(-c4nccs4)cc3)cccc2C1=O` is ____.
[reply] 0.995

[ask] Fill in the blank: the reported relative growth of CON=C1CN(c2nc3c(cc2F)c(=O)c(C(=O)O)cn3C2CC2)CC1CN.CS(=O)(=O)O (stereo not given) is ____.
[reply] 0.0419

[ask] Fill in the blank: the reported relative growth of `C[C@H]1CN([C@@H](C)CO)C(=O)Cc2cc(NC(=O)Nc3ccc4c(c3)OCO4)ccc2O[C@H]1CN(C)S(=O)(=O)c1cn(C)cn1` is ____.
[reply] 0.835
